test: in vivo; conditions: male, Sprague-Dawley, rat
readout-label: Cmax
Answer as a quantity: numeral, then unit.

Cmax reading for CC(C)(C)[C@H](NC(=O)C(F)(F)F)C(=O)N1C[C@H]2[C@@H]([C@H]1C(=O)N[C@H](C#N)C[C@@H]1CCNC1=O)C2(C)C : 2480 ng/mL

###

experiment: in vivo; conditions: male, Sprague-Dawley, rat, % Penetration by AUC CSF/Plasma, Median (IQR), rats with CSF sampled
readout-label: Kp
Would you mind answering with just the numeric figure?

Summary for this molecule, CC(C)(C)[C@H](NC(=O)C(F)(F)F)C(=O)N1C[C@H]2[C@@H]([C@H]1C(=O)N[C@H](C#N)C[C@@H]1CCNC1=O)C2(C)C : Kp is 0.152

###

experiment: in vivo; details: male, Sprague-Dawley, rat, po, 30 mg/kg
readout-label: k el (s⁻¹)
Please give a number only; it is taken to be in s⁻¹.

Sample CC(C)(C)[C@H](NC(=O)C(F)(F)F)C(=O)N1C[C@H]2[C@@H]([C@H]1C(=O)N[C@H](C#N)C[C@@H]1CCNC1=O)C2(C)C ; k el observed: 6.67e-05

###

assay: in vivo; details: male, Sprague-Dawley, rat, % Penetration by Cmax CSF/Plasma, Median (IQR), rats with CSF sampled
readout-label: Kp

Summary for this compound, CC(C)(C)[C@H](NC(=O)C(F)(F)F)C(=O)N1C[C@H]2[C@@H]([C@H]1C(=O)N[C@H](C#N)C[C@@H]1CCNC1=O)C2(C)C [NMR, nirmatrelvir] : Kp is 0.181

Each recorded value in this set is attributed to paper PMC11087525.
